test system: Mus musculus; assay: Immunostimulatory activity in C57BL/6J mouse assessed as increase in IL4 level at 2 ug, iv by cytometric bead array method; assay type: functional, organism-based
Active and inactive are the calls of the source. The rule behind the calls is not given here.
The categories you may choose from are label 1 for active, label 0 for inactive

These solved cases illustrate the format of a correct answer.
CCCCCCCCCCCCCC[C@@H](O)[C@@H](O)[C@H](CO[C@H]1O[C@H](CO)[C@H](O)[C@H](O)[C@H]1O)NC(=O)NCCCCCCCC	label 1
CCCCCCCCCCCCCCCCNC(=S)N[C@@H](CO[C@H]1O[C@H](CO)[C@H](O)[C@H](O)[C@H]1O)[C@H](O)[C@H](O)CCCCCCCCCCCCCC	label 0

Any idea what this test logged for `CCCCCCCCCCCCCCCCCCCCCCCCCC(=O)N[C@@H](CO[C@H]1O[C@H](CO)[C@H](O)[C@H](O)[C@H]1O)[C@H](O)[C@H](O)CCCCCCCCCCCCCC` ? label 1

Note, next up: `CCCCCCCCCCCCCC[C@@H](O)[C@@H](O)[C@H](CO[C@H]1O[C@H](CO)[C@H](O)[C@H](O)[C@H]1O)NC(=O)NCCCCCc1ccccc1` label 0

Note, next up: `CCCCCCCCCCCCCCCCNC(=O)N[C@@H](CO[C@H]1O[C@H](CO)[C@H](O)[C@H](O)[C@H]1O)[C@H](O)[C@H](O)CCCCCCCCCCCCCC` label 1

* * *

test system: Mus musculus; test: Immunostimulatory activity in C57BL/6J mouse assessed as increase in IFNgamma level at 2 ug, iv upto 24 hrs by ELISA; assay type: functional, organism-based
The source made the active and inactive calls. The calls are words filed in the database; no cut-off is given here.
The categories you may choose from are active, inactive

These solved cases illustrate the format of a correct answer.
CCCCCCCCCCCCCC[C@@H](O)[C@@H](O)[C@H](CO[C@H]1O[C@H](CO)[C@H](O)[C@H](O)[C@H]1O)NC(=O)NCCCCCCCC	active
CCCCCCCCCCCCCCCCCCCCCCCCCC(=O)N[C@@H](CO[C@H]1C[C@H](CO)[C@H](O)[C@H](O)[C@H]1O)[C@H](O)[C@H](O)CCCCCCCCCCCCCC	active

Any idea what this test logged for `CCCCCCCCCCCCCCCCCCCCCCCCCC(=O)N[C@@H](CC[C@H]1O[C@H](CO)[C@H](O)[C@H](O)[C@H]1O)[C@H](O)[C@H](O)CCCCCCCCCCCCCC` ? active

Note, next up: `CCCCCCCCCCCCCCCCCCCCCCCCNC(=O)N[C@@H](CO[C@H]1O[C@H](CO)[C@H](O)[C@H](O)[C@H]1O)[C@H](O)[C@H](O)CCCCCCCCCCCCCC` active

Note, next up: `CCCCCCCCCCCCCCCCCCCCCCCCNC(=O)N[C@@H](CO[C@H]1O[C@H](COC)[C@H](O)[C@H](O)[C@H]1O)[C@H](O)[C@H](O)CCCCCCCCCCCCCC` active

Note, next up: `CCCCCCCCCCCCCC[C@@H](O)[C@@H](O)[C@H](CO[C@H]1O[C@H](CO)[C@H](O)[C@H](O)[C@H]1O)NC(=O)CCCCCc1ccccc1` inactive

Note, next up: `CCCCCCCCCCCCCCCCCCCCCCCCCC(=O)N[C@@H](CS[C@H]1O[C@H](CO)[C@H](O)[C@H](O)[C@H]1O)[C@H](O)[C@H](O)CCCCCCCCCCCCCC` inactive

Note, next up: `CCCCCCCCCCCCCCCCNC(=O)N[C@@H](CO[C@H]1O[C@H](CO)[C@H](O)[C@H](O)[C@H]1O)[C@H](O)[C@H](O)CCCCCCCCCCCCCC` active

* * *

tested on: Mus musculus; test: Immunostimulatory activity in C57BL/6J mouse assessed as increase in IFNgamma level at 2 ug, iv upto 24 hrs by ELISA; format: functional, organism-based
Calls of active or inactive are those of the source. No cut-off for these calls is given here.
The categories you may choose from are 1.0 = active, 0.0 = inactive

These solved cases illustrate the format of a correct answer.
CCCCCCCCCCCCCCCCCCCCCCCCCC(=O)N[C@@H](CO[C@H]1C[C@H](COC)[C@H](O)[C@H](O)[C@H]1O)[C@H](O)[C@H](O)CCCCCCCCCCCCCC	1.0
CCCCCCCCCCCCCC[C@@H](O)[C@@H](O)[C@H](CO[C@H]1O[C@H](CO)[C@H](O)[C@H](O)[C@H]1O)NC(=O)NCCCCCc1ccccc1	0.0

We now examine a further compound.
Any idea what this test logged for `CCCCCCCCCCCCCCCCNC(=S)N[C@@H](CO[C@H]1O[C@H](CO)[C@H](O)[C@H](O)[C@H]1O)[C@H](O)[C@H](O)CCCCCCCCCCCCCC` ? 0.0
